test: Timed organ biodistribution of [^64Cu]Cu-DOTATATE by ex vivo gamma counting; assay type: in vivo, mice; settings: mouse, stomach, intravenous, 1.85 MBq, total radioactivity; female C57BL/6 mice, 30 min after injection, median (IQR), N=3-7; read-out: Tissue radioactivity, stomach
TEST_READOUT: tissue uptake at 0.5 h (%ID/g)
Numbers only; they are read as %ID/g.

# tissue uptake at 0.5 h (molecule: C[C@@H](O)[C@H](NC(=O)[C@@H]1CSSC[C@H](NC(=O)[C@@H](Cc2ccccc2)NC(=O)CN2CCN(CC(=O)O)CCN(CC(=O)O)CCN(CC(=O)O)CC2)C(=O)N[C@@H](Cc2ccc(O)cc2)C(=O)N[C@H](Cc2c[nH]c3ccccc23)C(=O)N[C@@H](CCCCN)C(=O)N[C@@H]([C@@H](C)O)C(=O)N1)C(=O)O [[^64Cu]Cu-DOTATATE, metal not drawn] ) is 7.8
